experiment: probe aNOTCH2 binding on compound microarray – biochemical, small-molecule microarray, 635/667 nm fluorescence, primary screen (AID 1121); conditions: higher = more signal;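 note: score merges feature fluorescence read at 667 nm with its signal to noise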
Entries annotated with measured composite z-score
A bare number is all that is needed in reply.

Exercise: Param item = "COC(=O)[C@@]1(Cc2ccc(OC)cc2)[C@H]2c3cc(C(=O)N(C)C)n(Cc4ccc(OC)c(OC)c4)c3C[C@H]2CN1C(=O)c1ccccc1" ; retrieve measured composite z-score.
Key: 0.218

Exercise: Param item = "COc1ccc([Si](C)(C)[C@H]2[C@H](CC(=O)N(CCO)Cc3ccccc3)O[C@@]3(C(=O)N(Cc4cccc(N5C(=O)c6cccc7cccc5c67)c4)c4ccccc43)[C@@H]2C)cc1" ; retrieve measured composite z-score.
Key: -0.154

Exercise: Param item = CC(C)C(O)C1C=CC2C(=O)N(C)C(=O)C2N1N1CCCCC1 (centres undefined) ; retrieve measured composite z-score.
Key: 0.0994

Exercise: Param item = "CC(C)N1C(=O)c2ccccc2[C@](C)(C(=O)NC2CC2)[C@@H]1c1ccc(CO)cc1" ; retrieve measured composite z-score.
Key: -0.171

Cited source for all entries: PubChem BioAssay
